These measurements were taken from the supplement of paper PMC11061612.

tested on: CAL-148 (Breast Carcinoma); experiment: Bliss excess, mean over the matrix (fraction); higher = more synergy;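 also: after 72 h of two-drug dosing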
Observable: Bliss excess
Please reply with the value in numeric form only.

Enquiry: Which Bliss excess value belongs to CC1(C)CCC(CN2CCN(c3ccc(C(=O)NS(=O)(=O)c4ccc(NCC5CCOCC5)c([N+](=O)[O-])c4)c(Oc4cnc5[nH]ccc5c4)c3)CC2)=C(c2ccc(Cl)cc2)C1 [Venetoclax] + C[C@@H]1COCCN1C2=NC(=NC(=C2)C3(CC3)[S@](=N)(=O)C)C4=C5C=CNC5=NC=C4 [AZD6738] (first compound max 1 µM, 7x7, partner max 10 µM) ?
Return: -0.0501

Enquiry: What about COc1nnc2ccc(N3CCC(c4ccc(OCCN5CCN(C)C(=O)[C@H]5C)cc4)CC3)nn12 [AZD5153] + Cc1c2c(nn1C)CSCc1cc(n(C)n1)CSc1cc(c3ccccc3c1)OCCCc1c(C(=O)O)n(C)c3c-2c(Cl)ccc13 [AZD5991] (first compound max 1 µM, 7x7, partner max 1 µM) ?
Return: 0.0117

Enquiry: And what about the compound CN(CCO)CC[C@H](CSc1ccccc1)Nc1ccc(S(=O)(=O)NC(=O)c2ccc(N3CCC([C@@H](O)c4ccccc4-c4ccc(Cl)cc4)CC3)cc2)cc1S(=O)(=O)C(F)(F)F [AZD4320] + CC(=O)O[C@H]1C(=O)[C@@]2(C)[C@H]([C@H](OC(=O)c3ccccc3)[C@]3(O)C[C@H](OC(=O)[C@H](O)[C@@H](NC(=O)c4ccccc4)c4ccccc4)C(C)=C1C3(C)C)[C@]1(OC(C)=O)CO[C@@H]1C[C@@H]2O [Paclitaxel] (first compound max 1 µM, 7x7, partner max 3 µM) ?
Return: 0.0761
